Experiment: total protein half-life in vivo (active degradation + dilution); higher = more stable protein
Details: wild type E. coli NCM3722; growth: P-lim chemostat; doubling time 12 h
total protein half-life in vivo vs 5 h: at or above is 1 (yes), below is 0 (no).

>>> categorylabel("MKKRKTVKKRYVIALVIVIAGLITLWRILNAPVPTYQTLIVRPGDLQQSVLATGKLDALRKVDVGAQVSGQLKTLSVAIGDKVKKDQLLGVIDPEQAENQIKEVEATLMELRAQRQQAEAELKLARVTYSRQQRLAQTKAVSQQDLDTAATEMAVKQAQIGTIDAQIKRNQASLDTAKTNLDYTRIVAPMAGEVTQITTLQGQTVIAAQQAPNILTLADMSAMLVKAQVSEADVIHLKPGQKAWFTVLGDPLTRYEGQIKDVLPTPEKVNDAIFYYARFEVPNPNGLLRLDMTAQVHIQLTDVKNVLTIPLSALGDPVGDNRYKVKLLRNGETREREVTIGARNDTDVEIVKGLEAGDEVVIGEAKPGAAQ")
"1 (yes)"
>>> categorylabel("MVKSQPILRYILRGIPAIAVAVLLSACSANNTAKNMHPETRAVGSETSSLQASQDEFENLVRNVDVKSRIMDQYADWKGVRYRLGGSTKKGIDCSGFVQRTFREQFGLELPRSTYEQQEMGKSVSRSNLRTGDLVLFRAGSTGRHVGIYIGNNQFVHASTSSGVIISSMNEPYWKKRYNEARRVLSRS [P0AFV4]")
"0 (no)"
>>> categorylabel("MLRFSANLSMLFGEYDFLARFEKAAQCGFRGVEFMFPYDYDIEELKHVLASNKLEHTLHNLPAGDWAAGERGIACIPGREEEFRDGVAAAIRYARALGNKKINCLVGKTPAGFSSEQIHATLVENLRYAANMLMKEDILLLIEPINHFDIPGFHLTGTRQALKLIDDVGCCNLKIQYDIYHMQRMEGELTNTMTQWADKIGHLQIADNPHRGEPGTGEINYDYLFKVIENSDYNGWVGCEYKPQTTTEAGLRWMDPYR")
"1 (yes)"
>>> categorylabel("MMQHQVNVSARFNPETLERVLRVVRHRGFHVCSMNMAAASDAQNINIELTVASPRSVDLLFSQLNKLVDVAHVAICQSTTTSQQIRA [P0ADG1]")
"0 (no)"
>>> categorylabel("MSVIKMTDLDLAGKRVFIRADLNVPVKDGKVTSDARIRASLPTIELALKQGAKVMVTSHLGRPTEGEYNEEFSLLPVVNYLKDKLSNPVRLVKDYLDGVDVAEGELVVLENVRFNKGEKKDDETLSKKYAALCDVFVMDAFGTAHRAQASTHGIGKFADVACAGPLLAAELDALGKALKEPARPMVAIVGGSKVSTKLTVLDSLSKIADQLIVGGGIANTFIAAQGHDVGKSLYEADLVDEAKRLLTTCNIPVPSDVRVATEFSETAPATLKSVNDVKADEQILDIGDASAQELAEILKNAKTILWNGPVGVFEFPNFRKGTEIVANAIADSEAFSIAGGGDTLAAIDLFGIADKISYISTGGGAFLEFVEGKVLPAVAMLEERAKK [P0A799]")
"1 (yes)"
>>> categorylabel("MGQRIPVTLGNIAPLSLRPFQPGRIALVCEGGGQRGIFTAGVLDEFMRAQFNPFDLYLGTSAGAQNLSAFICNQPGYARKVIMRYTTKREFFDPLRFVRGGNLIDLDWLVEATASQMPLQMDTAARLFDSGKSFYMCACRQDDYAPNYFLPTKQNWLDVIRASSAIPGFYRSGVSLEGINYLDGGISDAIPVKEAARQGAKTLVVIRTVPSQMYYTPQWFKRMERWLGDSSLQPLVNLVQHHETSYRDIQQFIEKPPGKLRIFEIYPPKPLHSIALGSRIPALREDYKLGRLCGRYFLATVGKLLTEKAPLTRHLVPVVTPESIVIPPAPVANDTLVAEVSDAPQANDPTFNNEDLA")
"0 (no)"

====

total protein half-life in vivo reference
Assay: total protein half-life in vivo (active degradation + dilution); higher = more stable protein
Details: wild type E. coli NCM3722; growth: C-lim chemostat; doubling time 6 h
measurementType: total protein half-life in vivo (h)

>>> endpointresult("MEQLRAELSHLLGEKLSRIECVNEKADTALWALYDSQGNPMPLMARSFSTPGKARQLAWKTTMLARSGTVRMPTIYGVMTHEEHPGPDVLLLERMRGVSVEAPARTPERWEQLKDQIVEALLAWHRQDSRGCVGAVDNTQENFWPSWYRQHVEVLWTTLNQFNNTGLTMQDKRILFRTRECLPALFEGFNDNCVLIHGNFCLRSMLKDSRSDQLLAMVGPGLMLWAPREYELFRLMDNSLAEDLLWSYLQRAPVAESFIWRRWLYVLWDEVAQLVNTGRFSRRNFDLASKSLLPWLA [P0AB03]")
3.92
>>> endpointresult("MFHRLWTLIRKELQSLLREPQTRAILILPVLIQVILFPFAATLEVTNATIAIYDEDNGEHSVELTQRFARASAFTHVLLLKSPQEIRPTIDTQKALLLVRFPADFSRKLDTFQTAPLQLILDGRNSNSAQIAANYLQQIVKNYQQELLEGKPKPNNSELVVRNWYNPNLDYKWFVVPSLIAMITTIGVMIVTSLSVAREREQGTLDQLLVSPLTTWQIFIGKAVPALIVATFQATIVLAIGIWAYQIPFAGSLALFYFTMVIYGLSLVGFGLLISSLCSTQQQAFIGVFVFMMPAILLSGYVSPVENMPVWLQNLTWINPIRHFTDITKQIYLKDASLDIVWNSLWPLLVITATTGSAAYAMFRRKVM [P0AFP9]")
6.05

====

Assay: total protein half-life in vivo (active degradation + dilution); higher = more stable protein
Conditions: wild type E. coli NCM3722; growth: C-lim chemostat; doubling time 12 h
total protein half-life in vivo vs 10 h: at or above is Yes, below is No.

>>> categorylabel("MKQTQRHNGIIELVKQQGYVSTEELVEHFSVSPQTIRRDLNELAEQNLILRHHGGAALPSSSVNTPWHDRKATQTEEKERIARKVAEQIPNGSTLFIDIGTTPEAVAHALLNHSNLRIVTNNLNVANTLMVKEDFRIILAGGELRSRDGGIIGEATLDFISQFRLDFGILGISGIDSDGSLLEFDYHEVRTKRAIIENSRHVMLVVDHSKFGRNAMVNMGSISMVDAVYTDAPPPVSVMQVLTDHHIQLELC [P0ACL0]")
"Yes"
>>> categorylabel("MNKETQPIDRETLLKEANKIIREHEDTLAGIEATGVTQRNGVLVFTGDYFLDEQGLPTAKSTAVFNMFKHLAHVLSEKYHLVD [P0AB61]")
"No"
>>> categorylabel("MTDMNILDLFLKASLLVKLIMLILIGFSIASWAIIIQRTRILNAAAREAEAFEDKFWSGIELSRLYQESQGKRDNLTGSEQIFYSGFKEFVRLHRANSHAPEAVVEGASRAMRISMNRELENLETHIPFLGTVGSISPYIGLFGTVWGIMHAFIALGAVKQATLQMVAPGIAEALIATAIGLFAAIPAVMAYNRLNQRVNKLELNYDNFMEEFTAILHRQAFTVSESNKG [P0ABU9]")
"Yes"
>>> categorylabel("MTIKNKMLLGALLLVTSAAWAAPATAGSTNTSGISKYELSSFIADFKHFKPGDTVPEMYRTDEYNIKQWQLRNLPAPDAGTHWTYMGGAYVLISDTDGKIIKAYDGEIFYHR")
"No"
>>> categorylabel("MAKVLVLYYSMYGHIETMARAVAEGASKVDGAEVVVKRVPETMPPQLFEKAGGKTQTAPVATPQELADYDAIIFGTPTRFGNMSGQMRTFLDQTGGLWASGALYGKLASVFSSTGTGGGQEQTITSTWTTLAHHGMVIVPIGYAAQELFDVSQVRGGTPYGATTIAGGDGSRQPSQEELSIARYQGEYVAGLAVKLNG [P0A8G6]")
"Yes"
>>> categorylabel("MKFELDTTDGRARRGRLVFDRGVVETPCFMPVGTYGTVKGMTPEEVEATGAQIILGNTFHLWLRPGQEIMKLHGDLHDFMQWKGPILTDSGGFQVFSLGDIRKITEQGVHFRNPINGDPIFLDPEKSMEIQYDLGSDIVMIFDECTPYPADWDYAKRSMEMSLRWAKRSRERFDSLGNKNALFGIIQGSVYEDLRDISVKGLVDIGFDGYAVGGLAVGEPKADMHRILEHVCPQIPADKPRYLMGVGKPEDLVEGVRRGIDMFDCVMPTRNARNGHLFVTDGVVKIRNAKYKSDTGPLDPECDCYTCRNYSRAYLHHLDRCNEILGARLNTIHNLRYYQRLMAGLRKAIEEGKLESFVTDFYQRQGREVPPLNVD [P0A847]")
"Yes"

====

Assay: total protein half-life in vivo (active degradation + dilution); higher = more stable protein
Conditions: wild type E. coli NCM3722; growth: C-lim chemostat; doubling time 12 h
measurementType: total protein half-life in vivo (h)

>>> endpointresult("MHPRFQTAFAQLADNLQSALEPILADKYFPALLTGEQVSSLKSATGLDEDALAFALLPLAAACARTPLSNFNVGAIARGVSGTWYFGANMEFIGATMQQTVHAEQSAISHAWLSGEKALAAITVNYTPCGHCRQFMNELNSGLDLRIHLPGREAHALRDYLPDAFGPKDLEIKTLLMDEQDHGYALTGDALSQAAIAAANRSHMPYSKSPSGVALECKDGRIFSGSYAENAAFNPTLPPLQGALILLNLKGYDYPDIQRAVLAEKADAPLIQWDATSATLKALGCHSIDRVLLA [P0ABF6]")
10.7
>>> endpointresult("MSRFIPIELHHASRLLNHGPTVLITSFDEQSQRRNIMAAAWSMPVEFEPPRVAIVVDKSTWTRELIEHNGKFGIVIPGVAATNWTWAVGSVSGRDEDKFNCYGIPVVRGPVFGLPLVEEKCLAWMECRLLPATSAQEEYDTLFGEVVSAAADARVFVEGRWQFDDDKLNTLHHLGAGTFVTSGKRVTAG")
9.97
>>> endpointresult("MKKIICLVITLLMTLPVYAKLTAHEEARINAMLEGLAQKKDLIFVRNGDEHTCYEAVSHLRLKLGNTRNRIDTAEQFIDKVASSSSITGKPYIVKIPGKSDENAQPFLHALIAQTDKTVPAEGN")
3.18
>>> endpointresult("MSQVQSGILPEHCRAAIWIEANVKGEVDALRAASKTFADKLATFEAKFPDAHLGAVVAFGNNTWRALSGGVGAEELKDFPGYGKGLAPTTQFDVLIHILSLRHDVNFSVAQAAMEAFGDCIEVKEEIHGFRWVEERDLSGFVDGTENPAGEETRREVAVIKDGVDAGGSYVFVQRWEHNLKQLNRMSVHDQEMVIGRTKEANEEIDGDERPETSHLTRVDLKEDGKGLKIVRQSLPYGTASGTHGLYFCAYCARLHNIEQQLLSMFGDTDGKRDAMLRFTKPVTGGYYFAPSLDKLMAL")
8.52
>>> endpointresult("MTTPTFDTIEAQASYGIGLQVGQQLSESGLEGLLPEALVAGIADALEGKHPAVPVDVVHRALREIHERADAVRRQRFQAMAAEGVKYLEENAKKEGVNSTESGLQFRVINQGEGAIPARTDRVRVHYTGKLIDGTVFDSSVARGEPAEFPVNGVIPGWIEALTLMPVGSKWELTIPQELAYGERGAGASIPPFSTLVFEVELLEIL [P0A9L3]")
10.4
